system under test: CXCR4 L41A (human, UniProt P61073-1 1-352, L41A)
Sequence (P61073 whole entry L41A): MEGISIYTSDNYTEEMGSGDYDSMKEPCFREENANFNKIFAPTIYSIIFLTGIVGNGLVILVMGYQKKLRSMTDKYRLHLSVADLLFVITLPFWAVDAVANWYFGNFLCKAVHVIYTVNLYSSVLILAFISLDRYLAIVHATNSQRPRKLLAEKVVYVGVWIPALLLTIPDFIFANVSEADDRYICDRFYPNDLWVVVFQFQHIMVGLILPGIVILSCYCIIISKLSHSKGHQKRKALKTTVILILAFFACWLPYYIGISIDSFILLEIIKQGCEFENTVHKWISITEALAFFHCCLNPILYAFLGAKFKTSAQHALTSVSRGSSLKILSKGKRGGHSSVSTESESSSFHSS
assay explanation: FACS
pIC50: −log10 of the molar value.
Examples of binders with documented pIC50 follow.
assay readout: pIC50

>  <binder>
IVRWSKKVPCVS (also called EPI-X4 WSC02; source: synthetic peptide (Fmoc solid-phase synthesis, HPLC-purified)) [WSC02]

>  <assay readout>
pIC50

>  <endpoint result>
5.77

$$$$
>  <binder>
ILRWSRKLPCVS (source: synthetic peptide (Fmoc solid-phase synthesis, HPLC-purified)) [EPI-X4 JM#21]

>  <assay readout>
pIC50

>  <endpoint result>
6.14

$$$$
